- Method summary: Stability in human HeLa cell homogenate assessed as half life by LC-MS/MS analysis
- Type: ADME, cell-based
Where a SMILES comes first, the peptide text is derived from it. Bridges are numbered along the chain shown (N, C = ends). [ ]: non-standard residue; d: D form. Bip = N[C@@H](Cc1ccc(-c2ccccc2)cc1)C(=O)O; Ala(cPent) = N[C@@H](CC1CCCC1)C(=O)O; hPhe = N[C@@H](CCc1ccccc1)C(=O)O; Cha = N[C@@H](CC1CCCCC1)C(=O)O; hLeu = CC(C)CC[C@H](N)C(=O)O
Below: a set of entries, each annotated with reported half-life.
// note: answer is a bare numeric in min

Example compounds with recorded half-life:
CC[C@H](C)[C@@H]1NC(=O)[C@H](CC2CCCCC2)NC(=O)[C@H](CC(C)C)NC(=O)[C@@H]2CCCN2C(=O)[C@@H](NC(=O)[C@H](CCCNC(=N)N)NC(=O)[C@H](CCCNC(=N)N)NC(C)=O)CSSC[C@@H](C(=O)N[C@@H](CCCNC(=N)N)C(=O)N[C@@H](CCCNC(=N)N)C(N)=O)NC(=O)[C@H](C(C)C)NC(=O)[C@@H]2CCCN2C(=O)[C@H](CC(=O)O)NC(=O)[C@H](Cc2ccc(O)cc2)NC(=O)[C@H](CO)NC1=O (Ac-RRCPL[Cha]ISYDPVCRR-NH2; disulfide 3-13) ... 21
CC[C@H](C)[C@@H]1NC(=O)[C@H](Cc2ccc(-c3ccccc3)cc2)NC(=O)[C@H](CC(C)C)NC(=O)[C@@H]2CCCN2C(=O)[C@@H](NC(=O)[C@H](CCCNC(=N)N)NC(=O)[C@H](CCCNC(=N)N)NC(C)=O)CSSC[C@@H](C(=O)N[C@@H](CCCNC(=N)N)C(=O)N[C@@H](CCCNC(=N)N)C(N)=O)NC(=O)[C@H](C(C)C)NC(=O)[C@@H]2CCCN2C(=O)[C@H](CC(=O)O)NC(=O)[C@H](Cc2ccc(O)cc2)NC(=O)[C@H](CO)NC1=O (Ac-RRCPL[Bip]ISYDPVCRR-NH2; disulfide 3-13) ... 55
CC(=O)N[C@@H](CCCNC(=N)N)C(=O)N[C@@H](CCCNC(=N)N)C(=O)N[C@H]1CSSC[C@@H](C(=O)N[C@@H](CCCNC(=N)N)C(=O)N[C@@H](CCCNC(=N)N)C(N)=O)NC(=O)[C@H](C(C)C)NC(=O)[C@@H]2CCCN2C(=O)[C@H](CC(=O)O)NC(=O)[C@H](Cc2ccc(O)cc2)NC(=O)[C@H](CO)NC(=O)[C@H](CCC(C)C)NC(=O)[C@H](CCc2ccccc2)NC(=O)[C@H](CC(C)C)NC(=O)[C@@H]2CCCN2C1=O (Ac-RRCPL[hPhe][hLeu]SYDPVCRR-NH2; disulfide 3-13) ... 14

Now look at this one.
Reported half-life for CC(=O)N[C@@H](CCCNC(=N)N)C(=O)N[C@@H](CCCNC(=N)N)C(=O)N[C@H]1CSSC[C@@H](C(=O)N[C@@H](CCCNC(=N)N)C(=O)N[C@@H](CCCNC(=N)N)C(N)=O)NC(=O)[C@H](C(C)C)NC(=O)[C@@H]2CCCN2C(=O)[C@H](CC(=O)O)NC(=O)[C@H](Cc2ccc(O)cc2)NC(=O)[C@H](CO)NC(=O)[C@H](CC2CCCC2)NC(=O)[C@H](Cc2ccc(O)cc2)NC(=O)[C@H](CC(C)C)NC(=O)[C@@H]2CCCN2C1=O (Ac-RRCPLY[Ala(cPent)]SYDPVCRR-NH2; disulfide 3-13) was 23
